Target: recombinant HIV-1 protease (Human immunodeficiency virus type 1 group M subtype B)
Construct: measured using a recombinant HIV-1 protease
Assay: Evaluation of enzyme inhibition constant Ki
Assay type: biochemical
pKi reference
pKi (log units): -log10 of the concentration in mol/L.

# annotated cases, reported pKi shown
[
  {
    "smiles.input": "COc1cccc2cc(C(=O)N[C@H](C(=O)N[C@@H](Cc3ccccc3)[C@H](O)C(=O)N3CSC(C)(C)[C@H]3C(=O)NCc3ccccc3C)C(C)C)oc12",
    "tested.target": "recombinant HIV-1 protease (Human immunodeficiency virus type 1 group M subtype B)",
    "pKi": 10.85
  },
  {
    "smiles.input": "CC1(C)SCN(C(=O)[C@@H](O)[C@H](Cc2ccccc2)NC(=O)[C@H](CC(N)=O)NC(=O)OCc2ccccc2)[C@@H]1C(=O)NCc1ccccc1",
    "tested.target": "recombinant HIV-1 protease (Human immunodeficiency virus type 1 group M subtype B)",
    "pKi": 10.72
  }
]

Now consider the entry below.
Complete the entry with pKi for `Cc1ccccc1CNC(=O)[C@H]1N(C(=O)[C@@H](O)[C@H](Cc2ccccc2)NC(=O)[C@H](CC(N)=O)NC(=O)OCc2ccccc2)CSC1(C)C`
10.80

Every entry's value here was drawn from patent US6291432A.
